This collection of values is drawn from PubChem BioAssay (NCI).

test system: MCF7 breast; experiment: NCI tumour cell line growth inhibition, 48 h; in the data active means GI50 below about 0.43 µM; inactive means the rest
Possible outcomes: active, inactive

compound: CN(Cc1ccccc1)c1ccc(CO)c(Cl)c1
assigned category: inactive
//
compound: CCN(CC)CC(O)CNc1c2ccc([N+](=O)[O-])cc2nc2cc(OC)c(OC)cc12 (stereo unspecified)
assigned category: active
//
compound: O=C(c1ccccc1)C(CN1CCCCC1)c1ccccc1 (stereo unspecified)
assigned category: inactive
//
compound: C#Cc1c(/C=C/C(=O)OCC)ccc2ccccc12
assigned category: inactive
//
compound: C=C1CCC2C3(C)COC(c4ccccc4)OC3CCC2(C)C1/C=C/C1=CCOC1=O (stereo unspecified)
assigned category: inactive
//
compound: COc1cc(C2SCC(=O)N2c2ncc(C)s2)cc(OC)c1OC (stereo unspecified)
assigned category: inactive

* * *

test system: BT-549 breast; assay: NCI tumour cell line growth inhibition, 48 h

compound: COC1CN(C)C(=Nc2cccc3ccccc23)S1 (stereo not given)
TGI: > 10 µM
//
compound: Cc1cc(Cc2cc(C)c(NC(=O)C(=O)C3CCC4=C(SC5C=CC=CC5N4)C3=O)c(C(C)C)c2)cc(C(C)C)c1NC(=O)C(=O)C1CCC2=C(SC3C=CC=CC3N2)C1=O (stereo not given)
TGI: > 100 µM
//
compound: O=C(O)CCSCc1ccccc1
TGI: > 100 µM
//
compound: Cn1c2c(c3ccc([N+](=O)[O-])cc3c1=O)C(=O)c1ccccc1-2
TGI: > 100 µM
//
compound: O=c1[nH]c(=S)[nH]c2c1CN(CCCN1CCOCC1)CN2
TGI: > 100 µM

* * *

system: T-47D breast; experiment: NCI tumour cell line growth inhibition, 48 h; in the data active = GI50 below about 0.43 µM; inactive = the rest
Possible outcomes: True for active, False for inactive

compound: COc1cc(C(=O)N2CCN(c3ncnc4ccccc34)CC2)c(N)cc1OCc1ccccc1
assigned category: False
--
compound: c1ccc(CN2COc3c(ccc4c3OCN(Cc3ccccc3)C4)C2)cc1
assigned category: False
--
compound: COC(=O)c1cc(O)c2cc3c(cc2c1-c1cc(OC)c(OC)c(OC)c1)OCO3
assigned category: False
--
compound: Oc1ccc(-c2nc3ccccc3s2)cc1CN(Cc1ccccn1)Cc1ccccn1
assigned category: False
--
compound: CCC(=C/[C@H](C)C/C=C/C(C)=C/[C@@H](C)C(=O)[C@@H](C)[C@H](O)[C@@H](C)CC)/C=C/[C@@H]1OC(=O)C=C[C@H]1C
assigned category: True
--
compound: C=CC(=O)Nc1cc(C)ccc1Nc1nc(Nc2cc(OC)ncc2C)ncc1C(F)(F)F
assigned category: False
--
compound: COc1ccc2c(=O)cc(C(Cl)(Cl)Cl)oc2c1
assigned category: False
--
compound: Cc1nnc(-c2cccc(-c3ccc(C(=O)NCC4CC4)cc3)c2)o1
assigned category: False
--
compound: COc1cccc(NC(=O)c2sc3nc(C)c(C(O)c4ccccc4)cc3c2N)c1 (stereo not given)
assigned category: False
--
compound: O=C(Nc1ccncc1)C(=O)c1cn(S(=O)(=O)c2ccc(Cl)cc2)c2ccccc12
assigned category: False

* * *

system: CCRF-CEM leukemia; test: NCI tumour cell line growth inhibition, 48 h

compound: Cc1ccc(S(=O)(=O)NC2(C=O)CCCC3CCCCC32)cc1 (stereo not given)
subject of test: CCRF-CEM leukemia
TGI: > 100 µM
--
compound: C/C(CC(=O)Nc1ccc(C)c(C)c1)=N\NC(N)=O
subject of test: CCRF-CEM leukemia
TGI: > 100 µM
--
compound: CNC(=O)c1ccccc1Nc1nc(Nc2cc(OC)c(OC)c(OC)c2)ncc1Br
subject of test: CCRF-CEM leukemia
TGI: > 19.9 µM
--
compound: O=C(Cc1ccc(F)c(F)c1)Nc1cc(C2(C(F)(F)F)CC2)nn1Cc1ccccc1
subject of test: CCRF-CEM leukemia
TGI: > 15 µM
--
compound: NC(=O)/N=C1/CCC2C3CCCC2C13
subject of test: CCRF-CEM leukemia
TGI: > 100 µM

* * *

test system: U251 CNS; assay: NCI tumour cell line growth inhibition, 48 h
value type: TGI

molecule: C/C1=C/C(=O)O[C@@H]2C[C@@H](CC[C@H](C)/C=C\C=C\CC1)O[C@@](O)([C@@H]1CSC(=O)N1)C2
value type: TGI
reported result: > 10 µM
--
molecule: COc1cc(C2SCC(=O)N2c2ncc(C)s2)cc(OC)c1OC (stereo not drawn)
value type: TGI
reported result: > 50 µM
--
molecule: O=C(Nc1ccc2[nH]c(C(=O)N3CC(CCl)c4c3cc([N+](=O)[O-])c3ccccc43)cc2c1)Nc1ccc2[nH]c(C(=O)N3CC(CCl)c4c3cc([N+](=O)[O-])c3ccccc43)cc2c1 (stereo not drawn)
value type: TGI
reported result: > 100 µM

* * *

// reported TGI for each item listed
test system: SF-539 CNS; experiment: NCI tumour cell line growth inhibition, 48 h

compound: COC1CN(C)C(=Nc2cccc3ccccc23)S1 (centres undefined)
TGI: > 10 µM
//
compound: Cc1ccc(S(=O)(=O)Oc2nc3ccccc3nc2OS(=O)(=O)c2ccc(C)cc2)cc1
TGI: > 100 µM
//
compound: O=C(O)CCSCc1ccccc1
TGI: > 100 µM
//
compound: Cc1cccc(C)c1NC(=O)C1C(=O)N(c2c(C)cccc2C)C(=O)/C1=N\N (centres undefined)
TGI: > 100 µM

* * *

test system: MALME-3M melanoma; experiment: NCI tumour cell line growth inhibition, 48 h

compound: S=C1CCSc2c(ccc3ccccc23)N1
TGI: > 100 µM

compound: COc1ccc(N2C(=O)C3c4[nH]c5ccc(Br)cc5c4C4CCC(C(C)(C)C)CC4C3C2=O)cc1 (stereo not drawn)
TGI: > 100 µM

compound: COC(=O)c1cc(C(=CCC[C@H]2CC[C@@]3(C)C(CCC4C3CC[C@@]3(C)C4CC[C@@H]3C(C)CCCC(C)C)C2)c2cc(Cl)c(O)c(C(=O)OC)c2)cc(Cl)c1O (stereo partly drawn)
TGI: > 10 µM

* * *

// reported TGI for each item listed
tested on: UO-31 renal; assay: NCI tumour cell line growth inhibition, 48 h

compound: Cc1csc(/C=C/C(=O)c2nnn(-c3ccnc4c(C(F)(F)F)cccc34)c2C)c1
inequality operator: >
TGI, µM: 100
//
compound: CCN(CC)CC(O)CNc1c2ccc([N+](=O)[O-])cc2nc2cc(OC)c(OC)cc12 (stereo not drawn)
inequality operator: =
TGI, µM: 12.9
//
compound: c1ccc(CN2COc3c(ccc4c3OCN(Cc3ccccc3)C4)C2)cc1
inequality operator: =
TGI, µM: 1.41

* * *

test system: SK-MEL-5 melanoma; assay: NCI tumour cell line growth inhibition, 48 h; in the data active means GI50 below about 0.43 µM; inactive means the rest
Possible outcomes: TRUE for active, FALSE for inactive

compound: O=C(c1ccccc1)C(CN1CCCCC1)c1ccccc1 (configuration not stated)
assigned category: FALSE
//
compound: O=C(Nc1ccc(Cl)c(Cl)c1)Nc1c(Oc2ccc(Cl)c(Cl)c2)ccc(Cl)c1S(=O)(=O)O
assigned category: FALSE
//
compound: Cc1cc(N2CCOCC2)nc(N[C@@H]2CCC[C@H](Nc3ccnc4cc(Cl)ccc34)C2)n1
assigned category: FALSE
//
compound: O=C(Nc1ccc(-n2ccc3c(NC(=O)c4ccccc4)ncnc32)cc1)Nc1ccc(Cl)c(Cl)c1
assigned category: FALSE
//
compound: O=C(NCCCO)c1cc(Cl)ccc1O
assigned category: FALSE
//
compound: C[As](C)SCC(COC(=O)C(Cl)c1ccccc1)OC(=O)C(Cl)c1ccccc1 (configuration not stated)
assigned category: TRUE
//
compound: S=C(Nc1ccc(-c2nc3ccccc3[nH]2)cc1)Nc1ccc(-c2nc3ccccc3[nH]2)cc1
assigned category: FALSE

* * *

// reported TGI for each item listed
test system: T-47D breast; assay: NCI tumour cell line growth inhibition, 48 h
value type: TGI

compound structure string: CCCCCCCCCCCCCCCCCCNC(=S)/N=C\C1=C(O)c2ccccc2C1=O
subject of test: T-47D breast
reported result: 37.2 µM

compound structure string: O=C(O)CCSCc1ccccc1
subject of test: T-47D breast
reported result: > 100 µM

compound structure string: CS(=O)(=O)CCc1cccc(C(=O)c2cnn(-c3ccc(F)cc3)c2N)c1
subject of test: T-47D breast
reported result: > 25 µM

compound structure string: CC(C)(C)c1cc(-n2c(-c3ccc(Cl)cc3)nc3cc(C(=O)Nc4ccc(Cl)cc4)ccc32)n[nH]1
subject of test: T-47D breast
reported result: > 100 µM

compound structure string: CCC(=C/[C@H](C)C/C=C/C(C)=C/[C@@H](C)C(=O)[C@@H](C)[C@H](O)[C@@H](C)CC)/C=C/[C@@H]1OC(=O)C=C[C@H]1C
subject of test: T-47D breast
reported result: 2.13 µM

compound structure string: C#Cc1c(/C=C/C(=O)OCC)ccc2ccccc12
subject of test: T-47D breast
reported result: > 100 µM

* * *

tested on: UACC-257 melanoma; assay: NCI tumour cell line growth inhibition, 48 h

compound: COc1ccc2ccccc2c1C1NC(=O)c2ccccc2N1 (stereo not drawn)
subject of test: UACC-257 melanoma
TGI: > 100 µM
--
compound: Nc1nnnn1CCO
subject of test: UACC-257 melanoma
TGI: > 100 µM
--
compound: [N-]=[N+]=NCCCCCC(=O)OC(C(=O)c1ccccc1)c1cccc(OCC(=O)NCCOCCOCCNC(=O)CCCC[C@@H]2SC[C@@H]3NC(=O)N[C@@H]32)c1 (stereo partly drawn)
subject of test: UACC-257 melanoma
TGI: > 100 µM
--
compound: C/C(CC(O)(/C=N/O)c1ccccc1)=N/O (stereo not drawn)
subject of test: UACC-257 melanoma
TGI: > 100 µM
--
compound: CC12CCC3(OCCO3)C(OC(=O)c3ccccc3)=C1CCC21OCCO1 (stereo not drawn)
subject of test: UACC-257 melanoma
TGI: > 100 µM
--
compound: NC(Cc1ccc(N(CCCl)CCCl)cc1)C(=O)NC(CCC(=O)O)C(=O)O (stereo not drawn)
subject of test: UACC-257 melanoma
TGI: > 100 µM
--
compound: CC(=O)Nc1c(C)cc2c(nc3n2CCC3OC(C)=O)c1[N+](=O)[O-] (stereo not drawn)
subject of test: UACC-257 melanoma
TGI: > 100 µM
--
compound: C[n+]1c2cc(N)ccc2cc2ccc(N)cc21
subject of test: UACC-257 melanoma
TGI: 3.91 µM [middle of 4 runs]
--
compound: O=C(O)CCSCc1ccccc1
subject of test: UACC-257 melanoma
TGI: > 100 µM
--
compound: [N-]=[N+]=NC(c1cn(C2CC(O)C(CO)O2)c(=O)[nH]c1=O)C(Cl)I (stereo not drawn)
subject of test: UACC-257 melanoma
TGI: > 100 µM
--
compound: CCOC(=O)C1=NN(c2ccc([N+](=O)[O-])cc2)[C@@]2(C)C[C@]3(c4ccccc4)N(c4ccc([N+](=O)[O-])cc4)N=C(C(=O)OCC)N3c3ccccc3N12
subject of test: UACC-257 melanoma
TGI: > 100 µM
--
compound: O=c1c(Br)cc2nc3ccccc3sc-2c1Br
subject of test: UACC-257 melanoma
TGI: > 85.4 µM
--
compound: C#Cc1c(/C=C/C(=O)OCC)ccc2ccccc12
subject of test: UACC-257 melanoma
TGI: > 100 µM
